procedure details: Plasma pharmacokinetics of ARRY-520
Format: in vivo, human
test settings: human, plasma, intravenous, 0.8 mg/m^2, t1/2, Schedule 2, Cycle 1 Day 5, 0.8 mg/m^2 (N=3); median (min-max)
endpoint label: half-life
Could you write the number and then its unit?

Prompt: Read off the recorded half-life for CON(C)C(=O)N1N=C(c2cc(F)ccc2F)S[C@@]1(CCCN)c1ccccc1 [ARRY-520]
Completion: 92.5 h

----------
procedure details: Plasma pharmacokinetics of ARRY-520
Format: in vivo, human
test settings: human, plasma, intravenous, 1.5 mg/m^2, AUC0–24, Schedule 2, Cycle 1 Day 5, 1.5 mg/m^2 (N=6); geometric mean (geometric %CV)
endpoint label: AUC(0-t)
Answers without a unit are incomplete; give the number and then its unit.

Prompt: Check the records and state AUC(0-t) for CON(C)C(=O)N1N=C(c2cc(F)ccc2F)S[C@@]1(CCCN)c1ccccc1
Completion: 667 ng·h/mL

----------
procedure details: Plasma pharmacokinetics of ARRY-520
Format: in vivo, human
test settings: human, plasma, intravenous, CL, range across cohorts, Schedule 1, Cycle 1
endpoint label: clearance

Prompt: Please give the documented clearance of CON(C)C(=O)N1N=C(c2cc(F)ccc2F)S[C@@]1(CCCN)c1ccccc1
Completion: 44.8 to 113 mL/min

----------
procedure details: Plasma pharmacokinetics of ARRY-520
Format: in vivo, human
test settings: human, plasma, intravenous, 1.5 mg/m^2, Cmax, Schedule 2, Cycle 1 Day 5, 1.5 mg/m^2 (N=6); geometric mean (geometric %CV)
endpoint label: Cmax

Prompt: Specify reported Cmax for the molecule shown: CON(C)C(=O)N1N=C(c2cc(F)ccc2F)S[C@@]1(CCCN)c1ccccc1 [ARRY-520]
Completion: 134 ng/mL

----------
procedure details: Plasma pharmacokinetics of ARRY-520
Type: in vivo, human
test settings: human, plasma, intravenous, 1.8 mg/m^2, Tmax, Schedule 2, Cycle 1 Day 5, 1.8 mg/m^2 (N=2); median (min-max)
endpoint label: Tmax (h)
Just the number in h, nothing appended.

Prompt: Let me know recorded Tmax for CON(C)C(=O)N1N=C(c2cc(F)ccc2F)S[C@@]1(CCCN)c1ccccc1 , thanks.
Completion: 1

----------
procedure details: Plasma pharmacokinetics of ARRY-520
Assay type: in vivo, human
test settings: human, plasma, intravenous, 1.8 mg/m^2, Cmax, Schedule 2, Cycle 1 Day 1, 1.8 mg/m^2 (N=2); geometric mean
endpoint label: Cmax (ng/mL)
Numbers only here, please. The scale is ng/mL.

Prompt: Using the record for CON(C)C(=O)N1N=C(c2cc(F)ccc2F)S[C@@]1(CCCN)c1ccccc1 [ARRY-520] , state its measured Cmax.
Completion: 24.4

----------
procedure details: Plasma pharmacokinetics of ARRY-520
Type: in vivo, human
test settings: human, plasma, intravenous, 5.6 mg/m^2, MRT, Schedule 1, Cycle 1 Day 1, 5.6 mg/m^2 (N=2); median (min-max)
endpoint label: MRT (h)
Numeric answer only, unit h assumed.

Prompt: State, in one line, measured MRT of CON(C)C(=O)N1N=C(c2cc(F)ccc2F)S[C@@]1(CCCN)c1ccccc1
Completion: 131
